molecular target: human GcgR (Homo sapiens); experiment: Functional cAMP activity in the presence of 1% HSA; format: cell-based; details: HEK-293 clonal cell line, 1% HSA, geometric mean of relative EC50; read-out: cAMP Rel EC50, hGcgR
Sequence (P47871 26-477): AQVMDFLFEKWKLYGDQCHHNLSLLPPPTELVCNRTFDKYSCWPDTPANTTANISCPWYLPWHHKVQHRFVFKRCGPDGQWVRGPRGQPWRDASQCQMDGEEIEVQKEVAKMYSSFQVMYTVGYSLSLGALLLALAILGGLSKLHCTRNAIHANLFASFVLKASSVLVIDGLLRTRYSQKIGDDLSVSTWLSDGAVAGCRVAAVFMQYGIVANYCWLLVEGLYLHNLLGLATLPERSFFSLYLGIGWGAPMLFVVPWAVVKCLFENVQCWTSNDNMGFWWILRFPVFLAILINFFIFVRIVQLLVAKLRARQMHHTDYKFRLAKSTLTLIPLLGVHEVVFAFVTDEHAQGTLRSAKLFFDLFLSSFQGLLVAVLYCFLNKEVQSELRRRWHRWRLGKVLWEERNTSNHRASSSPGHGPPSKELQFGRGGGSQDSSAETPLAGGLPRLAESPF
Starred links: 1 amine or outer side, 2 acyl side, 3 side chain; linkers in the order of their positions; H or OH if unused. Non-standard residues stand in square brackets, D forms with d. Groups on a side chain read outwards from the residue. No end group written: not given here. *: point of attachment. C18 diacid = O=C(O)CCCCCCCCCCCCCCCCC(=O)*; αMePhe(2-F) = C[C@](N)(Cc1ccccc1F)C(=O)O; γGlu = O=C(O)[C@H](CCC(=O)[*:2])N[*:1]; 4Pal = N[C@@H](Cc1ccncc1)C(=O)O; αMeL = CC(C)C[C@](C)(N)C(=O)O; αMeS = C[C@](N)(CO)C(=O)O; Orn = NCCC[C@H](N)C(=O)O; Aib = CC(C)(N)C(=O)O
Please respond with 1 when measured EC50 is strictly beneath 800 nM, and with 0 in all other cases.

Solved entries:
INSERT INTO assay_data (substance, qualitative_label) VALUES
  ('H-Y[Aib]QGT[αMePhe(2-F)]TSD[4Pal]SI[αMeL]LDKK([γGlu-γGlu-C18 diacid])AQ[Aib][Orn]FIEYLQEGGPSSGEPPPEGSEE-NH2 [Example 653]', 1),
  ('H-Y[Aib]QGT[αMePhe(2-F)]TSD[4Pal]SI[αMeL]LDKK([γGlu-γGlu-C18 diacid])AQ[Aib][Orn]FIEYLAEGGPSSGEPPPEGSEE-NH2 [Example 650]', 1),
  ('H-Y[Aib]QGT[αMePhe(2-F)]TSD[4Pal]SI[αMeL]LDKK([γGlu-γGlu-C18 diacid])AQ[Aib][Orn]FIEYLTEGGPSSGEPPPSGSEE-NH2 [Example 638]', 0),
  ('H-Y[Aib]QGT[αMePhe(2-F)]TSD[4Pal]SI[αMeL]LDKK([γGlu-γGlu-C18 diacid])AQ[Aib][Orn]FIEYLTEGGPSSGEPPPEGSEE-NH2 [Example 652]', 1),
  ('H-Y[Aib]QGT[αMePhe(2-F)]TSD[4Pal]SI[αMeL]LDKK([γGlu-γGlu-C18 diacid])AQ[Aib][Orn]FIEYLEEGGPSSGEPPPSGSEE-NH2 [Example 635]', 1);

Okay, now this substance:
Strictly below 800 nM in EC50? Y[Aib]QGT[αMePhe(2-F)]TSD[4Pal][αMeS]ILLD[Orn]K([γGlu-γGlu-C18 diacid])AQ[Aib][Orn]FI[dE]YLIEGGPSSGEPPPSETE-NH2 [Example 555]
1
